Tested on: AD5-10
measurement.notes: Synthetic peptides binding AD5-10 and blocking its tumoricidal activity on Jurkat cells
Type: cell-based, mouse
condition.summary: peptide 10 μM
experimental.readout: binding to AD5-10 and blocking of its cytotoxicity

mutant epitope 1: synthetic peptide of wild-type epitope 1 with the key amino acid residues mutated (AQITQQDAAPQQRA; mutant epitope 1) = cannot bind to AD5-10
mutant epitope 2: synthetic peptide of wild-type epitope 2 with the key amino acid residues mutated (AITQQDAAPQQRA; mutant epitope 2) = cannot bind to AD5-10

meta.source: patent US8790663B2
